Target: Syk (h) (Homo sapiens, UniProt P43405)
Experiment: Syk kinase inhibition assay (33P-ATP filter binding)
Type: biochemical
Details: 10 μM test agent; 40 minutes at room temperature; substrate poly (Glu, Tyr) 4:1; read-out: % inhibition
Method: In a final reaction volume of 25 μl, Syk (h) (5-10 mU) is incubated with 50 mM Tris pH 7.5, […], 0.1 mM Na3VO4, 0.1% β-mercaptoethanol, 0.1 mg/mL poly (Glu, Tyr) 4:1, 10 μM test agent, 10 mM MgAcetate and [γ-^33P-ATP] (specific activity approximately 500 cpm/pmol, concentration as required). The reaction is initiated by the addition of the MgATP mix. […] Percent inhibition was calculated using the following formula: % Control=((sample-mean no enzyme)/(mean plus enzyme−mean no enzyme))×100.
The compounds listed here are annotated with their inhibition at 10 µM.

>  <Smiles Notation>
COc1ccccc1-c1cnc2ccc(NCc3ccccn3)nn12

>  <inhibition at 10 µM / %>
81

$$$$
>  <Smiles Notation>
c1n[nH]cc1-c1cnc2ccc(NC3CCOCC3)nn12

>  <inhibition at 10 µM / %>
42

$$$$
>  <Smiles Notation>
CCCNc1ccc2ncc(-c3ccsc3)n2n1

>  <inhibition at 10 µM / %>
23

$$$$
>  <Smiles Notation>
CCCNc1ccc2ncc(-c3cc(C)cs3)n2n1

>  <inhibition at 10 µM / %>
38

$$$$
>  <Smiles Notation>
COc1ccc(-c2cnc3ccc(NCc4ccccn4)nn23)cc1

>  <inhibition at 10 µM / %>
77

$$$$
>  <Smiles Notation>
c1csc(-c2cnc3ccc(NCC4CC4)nn23)c1

>  <inhibition at 10 µM / %>
26

$$$$
>  <Smiles Notation>
COc1cc(CNc2ccc3ncc(-c4ccc(Oc5ccccc5)cc4)n3n2)cc(OC)c1OC

>  <inhibition at 10 µM / %>
24

$$$$
>  <Smiles Notation>
CN1CCN(c2ccc(CNc3ccc4ncc(-c5cccc(OC(F)(F)F)c5)n4n3)cc2)CC1

>  <inhibition at 10 µM / %>
33

$$$$
